Provenance of the data: the supplement of paper PMC4862054

# Test system: CAL-51
# assay: drug sensitivity score (DSS), CellTiter-Glo (DSS (AUC-based score)); higher = stronger drug effect (viability inhibition or cytotoxicity); extreme values may be limits of the assay
# measurement.parameters: incubation time: 72 h
test.readout: drug sensitivity score
Could you respond with only the numeric value?

>>> recorded_result("CCN(CC)CCCC(C)Nc1ccnc2cc(Cl)ccc12 (stereo not given)")
13.3
>>> recorded_result("CN(C)C(=N)NC(=N)N")
6.92

Report drug sensitivity score, nothing else, for this compound: "Cc1nc(C(=O)NCC(=O)O)c(O)c2ccc(Oc3ccccc3)cc12"
0

Report drug sensitivity score, nothing else, for this compound: "O=C(O)CNC(=O)c1c(O)c2ccccc2n(Cc2ccccc2)c1=O"
3.96

Report drug sensitivity score, nothing else, for this compound: "Cn1cc(C2=C(c3cn(C4CCN(Cc5ccccn5)CC4)c4ccccc34)C(=O)NC2=O)c2ccccc21"
0

----------
# Test system: MDA-MB-453
# assay: normalised response (% of control), CellTiter-Glo; higher = more viable cells (100 = DMSO, 0 = benzethonium chloride kill control)
# measurement.parameters: incubation time: 72 h
If the reported normalised response equals or exceeds 70%, assign Satisfied. If not, assign Not satisfied.

>>> class_assignment("CC(O)(CS(=O)(=O)c1ccc(F)cc1)C(=O)Nc1ccc(C#N)c(C(F)(F)F)c1 (stereo unspecified) [Bicalutamide] (10000 nM)")
"Satisfied"
>>> class_assignment("CCn1c(C(=O)N(C2CC2)C2CC2)cc2c3c(ncn3C)c(Nc3cc(C)n(C)n3)nc21 (10000 nM)")
"Satisfied"
>>> class_assignment("O=C(CCCCCCC(=O)Nc1ccccc1)NO [Vorinostat] (10000 nM)")
"Not satisfied"
>>> class_assignment("CCNC(=O)c1noc(-c2cc(C(C)C)c(O)cc2O)c1-c1ccc(CN2CCOCC2)cc1 [NVP-AUY922] (1000 nM)")
"Not satisfied"
>>> class_assignment("Cc1cc(Nc2nc(N[C@@H](C)c3ncc(F)cn3)ncc2Cl)[nH]n1 [AZD1480] (1000 nM)")
"Satisfied"

Please look at the following molecule next.
Does the molecule Cn1cc(C2=C(c3cn(C4CCN(Cc5ccccn5)CC4)c4ccccc34)C(=O)NC2=O)c2ccccc21 [Enzastaurin] (10000 nM) have recorded normalised response that is 70% or more?
Satisfied

----------
# System: MDA-MB-231
# assay: normalised viability (% of control), CellTiter-Blue; higher = more viable cells (about 100 = DMSO control)
# measurement.parameters: 10 nM; incubation time: 72 h
Entries and their normalised viability values follow.
A bare number is not enough; add the unit after it.

Solved cases (4 shown):
>>> recorded_result("COc1cc(Nc2c(C#N)cnc3cc(OCCCN4CCN(C)CC4)c(OC)cc23)c(Cl)cc1Cl")
"98.9%"
>>> recorded_result("C=CCN(/C=C1/C(=O)O[C@H](COC)[C@@]2(C)C1=C(O)C(=O)C1=C2[C@H](OC(C)=O)C[C@]2(C)C(=O)CC[C@@H]12)CC=C")
"92.9%"
>>> recorded_result("COc1ccc(S(=O)(=O)Nc2cccnc2Nc2ccc(O)cc2)cc1")
"89.3%"
>>> recorded_result("CC1(C)CCC(c2ccc(Cl)cc2)=C(CN2CCN(c3ccc(C(=O)NS(=O)(=O)c4ccc(N[C@H](CCN5CCOCC5)CSc5ccccc5)c(S(=O)(=O)C(F)(F)F)c4)cc3)CC2)C1")
"74.7%"

Report normalised viability, nothing else, for this compound: "COc1c2occc2cc2ccc(=O)oc12"
102%

Report normalised viability, nothing else, for this compound: CC(C)(C)NC(=O)[C@H]1CC[C@H]2[C@@H]3CC[C@H]4NC(=O)C=C[C@]4(C)[C@H]3CC[C@]12C [Finasteride]
98.2%

----------
# System: MDA-MB-231
# assay: normalised response (% of control), CellTiter-Glo; higher = more viable cells (100 = DMSO, 0 = benzethonium chloride kill control)
# measurement.parameters: incubation time: 72 h
test.readout: normalised response (%)
Write down the numeric answer in % and omit the unit.

>>> recorded_result("CC(C)C[C@H](NC(=O)[C@@H](COC(C)(C)C)NC(=O)[C@H](Cc1ccc(O)cc1)NC(=O)[C@H](CO)NC(=O)[C@H](Cc1c[nH]c2ccccc12)NC(=O)[C@H](Cc1cnc[nH]1)NC(=O)[C@@H]1CCC(=O)N1)C(=O)N[C@@H](CCCNC(=N)N)C(=O)N1CCC[C@H]1C(=O)NNC(N)=O [Goserelin] (10 nM)")
94

Lab note: next molecule to report on.
Report normalised response, nothing else, for this molecule: CCNC(=O)c1noc(-c2cc(C(C)C)c(O)cc2O)c1-c1ccc(CN2CCOCC2)cc1 [NVP-AUY922] (0.1 nM)
106

----------
# Tested on: CAL-51
# assay: normalised response (% of control), CellTiter-Glo; higher = more viable cells (100 = DMSO, 0 = benzethonium chloride kill control)
# measurement.parameters: incubation time: 72 h
Entries and their normalised response values follow.
Write down the numeric answer in % and omit the unit.

Report normalised response, nothing else, for this compound: CO[C@@]12[C@H](COC(N)=O)C3=C(C(=O)C(C)=C(N)C3=O)N1C[C@@H]1N[C@@H]12 [Mitomycin C] (10000 nM)
5.75

Report normalised response, nothing else, for this compound: CC(C)(C)NC(=O)[C@H]1CC[C@H]2[C@@H]3CC[C@H]4NC(=O)C=C[C@]4(C)[C@H]3CC[C@]12C [Finasteride] (10000 nM)
91.7

Report normalised response, nothing else, for this compound: CO[C@@H]1[C@H](N(C)C(=O)c2ccccc2)C[C@H]2O[C@]1(C)n1c3ccccc3c3c4c(c5c6ccccc6n2c5c31)C(=O)NC4 [Midostaurin] (10000 nM)
11.5

Report normalised response, nothing else, for this compound: COc1cc(Nc2c(C#N)cnc3cc(OCCCN4CCN(C)CC4)c(OC)cc23)c(Cl)cc1Cl [Bosutinib] (10000 nM)
25

Report normalised response, nothing else, for this compound: CCN(CC)CCCC(C)Nc1ccnc2cc(Cl)ccc12 (stereo not drawn) [Chloroquine] (100000 nM)
1.42

Report normalised response, nothing else, for this compound: COc1ccc(S(=O)(=O)Nc2cccnc2Nc2ccc(O)cc2)cc1 [ABT-751] (10000 nM)
25.2

Report normalised response, nothing else, for this compound: Cn1cc(C2=C(c3cn(C4CCN(Cc5ccccn5)CC4)c4ccccc34)C(=O)NC2=O)c2ccccc21 [Enzastaurin] (10000 nM)
82.1

----------
# Test system: MDA-MB-231
# assay: drug sensitivity score (DSS), CellTox Green (DSS (AUC-based score)); higher = stronger drug effect (viability inhibition or cytotoxicity); extreme values may be limits of the assay
# measurement.parameters: incubation time: 72 h
test.readout: drug sensitivity score
Could you respond with only the numeric value?

Solved cases (4 shown):
>>> recorded_result("CNC(=O)c1ccccc1Sc1ccc2c(/C=C/c3ccccn3)n[nH]c2c1")
0
>>> recorded_result("CCn1c(C(=O)N(C2CC2)C2CC2)cc2c3c(ncn3C)c(Nc3cc(C)n(C)n3)nc21")
0
>>> recorded_result("CCNC(=O)CCC/C=C\\C[C@@H]1[C@@H](/C=C/[C@@H](O)CCc2ccccc2)[C@H](O)C[C@@H]1O")
0
>>> recorded_result("CN(Cc1cnc2nc(N)nc(N)c2n1)c1ccc(C(=O)N[C@@H](CCC(=O)O)C(=O)O)cc1 [Methotrexate]")
0

Lab note: next compound to report on.
Retrieve drug sensitivity score on MDA-MB-231; query C/C(=C\c1csc(C)n1)[C@@H]1C[C@@H]2O[C@]2(C)CCC[C@H](C)[C@H](O)[C@@H](C)C(=O)C(C)(C)[C@@H](O)CC(=O)N1 [Ixabepilone]
0.915

----------
Entries and their normalised viability values follow.
# System: HCC1937
# assay: normalised viability (% of control), CellTiter-Blue; higher = more viable cells (about 100 = DMSO control)
# measurement.parameters: 10 nM; incubation time: 72 h
Write down the numeric answer in % and omit the unit.

Report normalised viability, nothing else, for this molecule: CC(C)(C)NC(=O)[C@H]1CC[C@H]2[C@@H]3CC[C@H]4NC(=O)C=C[C@]4(C)[C@H]3CC[C@]12C [Finasteride]
107

Report normalised viability, nothing else, for this molecule: "CC1(C)CCC(c2ccc(Cl)cc2)=C(CN2CCN(c3ccc(C(=O)NS(=O)(=O)c4ccc(N[C@H](CCN5CCOCC5)CSc5ccccc5)c(S(=O)(=O)C(F)(F)F)c4)cc3)CC2)C1"
87.6

Report normalised viability, nothing else, for this molecule: CC(O)(CS(=O)(=O)c1ccc(F)cc1)C(=O)Nc1ccc(C#N)c(C(F)(F)F)c1 (centres undefined) [Bicalutamide]
101

Report normalised viability, nothing else, for this molecule: "COc1c2occc2cc2ccc(=O)oc12"
68.3

----------
Entries and their normalised response values follow.
# Tested on: SK-BR-3
# assay: normalised response (% of control), CellTiter-Glo; higher = more viable cells (100 = DMSO, 0 = benzethonium chloride kill control)
# measurement.parameters: incubation time: 72 h
Write down the numeric answer in % and omit the unit.

>>> recorded_result("C/C(=C\\c1csc(C)n1)[C@@H]1C[C@@H]2O[C@]2(C)CCC[C@H](C)[C@H](O)[C@@H](C)C(=O)C(C)(C)[C@@H](O)CC(=O)N1 [Ixabepilone] (10 nM)")
113

Report normalised response, nothing else, for this molecule: CC(C)n1cnc2c(NCCc3ccc(O)cc3)nc(-c3csc4ccccc34)nc21 [StemRegenin 1] (100 nM)
103

Report normalised response, nothing else, for this molecule: Cc1cn(-c2cc(NC(=O)c3ccc(C)c(Nc4nccc(-c5cccnc5)n4)c3)cc(C(F)(F)F)c2)cn1 [Nilotinib] (100 nM)
96.3
